- System Tested: EPHB1 (UniProt P54762)
- Sequence (P54762 whole entry, looked up): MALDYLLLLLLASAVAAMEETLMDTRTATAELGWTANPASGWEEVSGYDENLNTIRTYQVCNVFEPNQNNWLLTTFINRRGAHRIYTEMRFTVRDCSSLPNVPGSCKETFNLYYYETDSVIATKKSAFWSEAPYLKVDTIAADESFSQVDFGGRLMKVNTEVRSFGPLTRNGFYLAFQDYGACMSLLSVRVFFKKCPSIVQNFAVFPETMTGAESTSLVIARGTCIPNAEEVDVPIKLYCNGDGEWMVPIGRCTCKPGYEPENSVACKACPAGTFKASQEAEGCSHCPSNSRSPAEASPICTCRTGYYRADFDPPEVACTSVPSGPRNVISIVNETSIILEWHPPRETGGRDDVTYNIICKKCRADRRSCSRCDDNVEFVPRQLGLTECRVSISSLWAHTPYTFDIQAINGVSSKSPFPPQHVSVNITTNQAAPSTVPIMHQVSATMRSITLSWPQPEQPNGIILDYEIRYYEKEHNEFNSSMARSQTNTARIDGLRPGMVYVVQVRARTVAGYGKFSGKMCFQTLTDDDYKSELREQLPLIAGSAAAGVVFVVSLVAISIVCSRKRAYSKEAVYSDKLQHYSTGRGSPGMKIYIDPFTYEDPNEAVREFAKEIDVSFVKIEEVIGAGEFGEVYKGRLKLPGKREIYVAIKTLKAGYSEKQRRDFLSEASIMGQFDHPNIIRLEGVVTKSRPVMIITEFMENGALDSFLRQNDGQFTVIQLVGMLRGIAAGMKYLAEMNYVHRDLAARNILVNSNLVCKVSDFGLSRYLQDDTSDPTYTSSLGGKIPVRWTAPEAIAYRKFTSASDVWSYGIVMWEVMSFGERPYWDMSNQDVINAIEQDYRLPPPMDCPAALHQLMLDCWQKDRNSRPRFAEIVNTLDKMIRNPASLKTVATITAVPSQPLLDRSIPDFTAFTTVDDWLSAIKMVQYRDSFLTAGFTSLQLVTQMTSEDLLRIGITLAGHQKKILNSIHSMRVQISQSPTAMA
- Method Notes: phosphorylation enrichment, bacterial display (enrichment ratio); higher = better substrate or ligand; peptides without Tyr show the background;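 further: 11-residue human phosphosite peptides and single-mutation variants displayed on the E. coli surface, counted by deep sequencing, each peptide's frequency after selection divided by its frequency in the unselected input library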;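 further: frequency after pTyr selection over input frequency; kinase dosed for 20-30% of maximal phosphorylation in three min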
Lab note: anything with phosphorylation enrichment at or over 0.6 counts as t; the rest go in f.

Query block: Evaluate CTTIHYHYMCN [TP53_Y234_N235H] : phosphorylation enrichment at minimum 0.6?
Result block: f

Query block: Decide: is the reported value of phosphorylation enrichment for FKWAVYCIIGR [NUP93_Y391_R388W_YF] equal to or greater than 0.6?
Result block: t

Query block: Given the entry FFRCHYPLTTL [TNS4_Y644_R642C] , answer whether its phosphorylation enrichment meets or surpasses 0.6.
Result block: f

Query block: For this sequence, is measured phosphorylation enrichment 0.6 or higher? QEGPEYWDEET [HLA-A_Y83_Q86E]
Result block: t

Query block: Assess whether reported phosphorylation enrichment for LFSLGYHQSRW [GANAB_Y396] sits at 0.6 or higher.
Result block: t

Query block: Dear colleague, could you confirm whether QRRYLYYYSYL [PTEN_Y176_V175L] has phosphorylation enrichment at or above 0.6?
Result block: t

Query block: Hello, I need to know if AKIDGYIISYR has measured phosphorylation enrichment not below 0.6. Thanks!
Result block: t

Query block: hey, is phosphorylation enrichment for this one >= 0.6? GITVTYTIPKK [UBA5_Y372_A371T]
Result block: f

Query block: Evaluate RGRSTYYWPRP [GAGE12J_Y9] : phosphorylation enrichment at minimum 0.6?
Result block: t

Query block: Given KNEKVYTRHGV [FLOT1_Y56_S52N] , state whether its phosphorylation enrichment is at least 0.6.
Result block: f

Query block: State whether the measured phosphorylation enrichment reaches 0.6, counting equality as reaching it, for RENGPYFASFP [GDAP2_Y487_T489A_YF]
Result block: f

Query block: Has FRASFYRKGGC [ALK_Y1283_YF] a recorded phosphorylation enrichment greater than or equal to 0.6?
Result block: f

Query block: Check this sequence for phosphorylation enrichment at or above 0.6: RFGKVYKGHLF [ROR2_Y488]
Result block: f

Query block: Test whether the sequence PSRKDYETYQS [CTNND2_Y1154_P1159S] records phosphorylation enrichment of 0.6 or higher.
Result block: t

Query block: Does the sequence PIPAAYNKYDQ [CDC73_Y290_R292K] have recorded phosphorylation enrichment that is 0.6 or more?
Result block: f

Query block: Assess whether reported phosphorylation enrichment for SVTCMYSPALN [TP53_Y126_T125M] sits at 0.6 or higher.
Result block: t

Query block: For this sequence, is measured phosphorylation enrichment 0.6 or higher? NKFVAYIESQG [KDM4B_Y34_YF]
Result block: f

Query block: API: above_or_equal(metric=phosphorylation enrichment, cutoff=0.6) for item EAMPDYKKQLR [SPATA18_Y229_S227P]
Result block: f

Query block: Is it the case that KASGKYFAMKI [AKT3_Y173_YF] has phosphorylation enrichment reaching or exceeding 0.6?
Result block: f

Query block: Hi, just wondering whether GLTSTYVGIRK [ROBO1_Y932_A933V] shows phosphorylation enrichment of 0.6 or higher.
Result block: f

Query block: Dear colleague, could you confirm whether KTSGNYLAVTG [WDR19_Y28] has phosphorylation enrichment at or above 0.6?
Result block: t

Query block: Quick check, phosphorylation enrichment >= 0.6? KPRKPYTIKKP [BRD2_Y715]
Result block: t

Query block: Item GVTLLYFGRDN [ADGRD1_Y85_Y89D_YF] with phosphorylation enrichment of 0.6 or above?
Result block: t

Query block: # bool: phosphorylation enrichment of KFVVVYFREID [IL17RB_Y447_YF] >= 0.6
Result block: f

Query block: Does the sequence DTLLEYLENPK [CYCS_Y68_M66L] have recorded phosphorylation enrichment that is 0.6 or more?
Result block: t

Query block: Determine whether this sequence has phosphorylation enrichment no lower than 0.6: PEADKYHLTFA [FGG_Y300_R301H_YF]
Result block: t

Query block: hey, is phosphorylation enrichment for this one >= 0.6? CTTIHYSFMCN [TP53_Y234_N235S_YF]
Result block: f

Query block: Form field: phosphorylation enrichment at least 0.6? Entry: LKTNCYNNGKD [DNMT3B_Y404]
Result block: t

Query block: Can STDDGCIDLQF [TMEM230_Y29_Y29C] be said to have phosphorylation enrichment at or above 0.6?
Result block: f

Query block: Decide: phosphorylation enrichment of IKNSGYISRFL [EIF2AK3_Y585_YF] >= 0.6?
Result block: f

Query block: For this sequence, is measured phosphorylation enrichment 0.6 or higher? YIRKDYEACKA [BBS4_Y48]
Result block: f

Query block: Would you say CASQLCPRHKH [DCTN4_Y263_Y263C] shows phosphorylation enrichment at minimum 0.6?
Result block: f

Query block: Identify whether the reported phosphorylation enrichment of the following sequence is 0.6 or greater: PVADPYDQSFE [MAPK14_Y323]
Result block: t

Query block: Identify whether the reported phosphorylation enrichment of the following sequence is 0.6 or greater: LKEIHYPPFTD [ALDH3B2_Y362_YF]
Result block: f

Query block: Evaluate VRFMAYTDETC [F8_Y450_F455C] : phosphorylation enrichment at minimum 0.6?
Result block: t

Query block: Is phosphorylation enrichment for RRGMPYGGHGD [TGM1_Y312_R315H] at or above 0.6?
Result block: f

Query block: Dear colleague, could you confirm whether MIAIRYSHSRR [ACOXL_Y260_T255M] has phosphorylation enrichment at or above 0.6?
Result block: f

Query block: Quick check: does LDFPEYDGVDR [CASQ1_Y43] have phosphorylation enrichment greater than or equal to 0.6?
Result block: t

Query block: Threshold query (phosphorylation enrichment >= 0.6) on PNATLYKMSSI [SERPINA7_Y40]
Result block: f

Query block: Item KLRMESLSLMH [NCKIPSD_Y660_Y660S] with phosphorylation enrichment of 0.6 or above?
Result block: f

Query block: Could you verify whether the entry VISNAYVDLAP [HSD17B4_Y602] shows phosphorylation enrichment of no less than 0.6?
Result block: f

Query block: Decide: phosphorylation enrichment of DPLLTHRFPPK [LMNA_Y481_Y481H] >= 0.6?
Result block: f

Query block: Check the entry AARVSYRLASG [DCHS1_Y1582] : does phosphorylation enrichment equal or exceed 0.6?
Result block: f

Query block: Textbook exercise: given the entry KIVQDYLEKFY [MMP8_Y36_T32I] , state whether its phosphorylation enrichment is greater than or equal to 0.6.
Result block: f

Query block: Dear colleague, could you confirm whether NFRNTYVNANE [KCNH2_Y475_T473N] has phosphorylation enrichment at or above 0.6?
Result block: f

Query block: Evaluate HEVHIYENSGA [ARPC1B_Y35_K37N] : phosphorylation enrichment at minimum 0.6?
Result block: t

Query block: Identify whether the reported phosphorylation enrichment of the following sequence is 0.6 or greater: QDRTFYERVRT [SPEN_Y633_S635R_YF]
Result block: f

Query block: Item EFKKHYGYSLY [ANXA3_Y295] with phosphorylation enrichment of 0.6 or above?
Result block: f

Query block: Threshold query (phosphorylation enrichment >= 0.6) on SHTPSYCDEWL [RITA1_Y109_S113W]
Result block: t

Query block: Confirm if phosphorylation enrichment reported for the sequence KSVEEYANCHL [TF_Y593_P589S] is 0.6 or above.
Result block: f

Query block: Please tell me: is the sequence VDEERYDIEGK [TNNI3_Y112_A116G] at or over 0.6 in terms of phosphorylation enrichment?
Result block: t

Query block: Quick check: does HKNNNYEPSLF [BRCA2_Y57_N60S] have phosphorylation enrichment greater than or equal to 0.6?
Result block: t

Query block: Determine whether this sequence has phosphorylation enrichment no lower than 0.6: AVLVQYYMEHH [PTPN11_Y80_E76V]
Result block: t

Query block: Decide: phosphorylation enrichment of ADARMYGVLPR [PLP1_Y207_W212R] >= 0.6?
Result block: f

Query block: Answer whether phosphorylation enrichment of ENAGYYFQVSA is greater than or equal to 0.6.
Result block: f

Query block: Does the sequence YSTDYYRVGGH [NTRK2_Y707] have recorded phosphorylation enrichment that is 0.6 or more?
Result block: t
